This listing pairs compounds with measured growth AUC.
Test system: Bacteroides stercoris
Test: growth AUC relative to DMSO control (median of replicates) (fraction); higher = more growth (less inhibition), active = hit call of the paper
Settings: 20 µM; 24 h
# output: bare number, no unit

Input line: Fill in the recorded growth AUC for this compound, with Bacteroides stercoris as test system: COP(=O)(OC)Oc1ccc(S(C)(=O)=O)c(C)c1
Output line: 1.01

Input line: Fill in the recorded growth AUC for this compound, with Bacteroides stercoris as test system: CC1(C)CON(Cc2ccccc2Cl)C1=O
Output line: 0.996

Input line: Fill in the recorded growth AUC for this compound, with Bacteroides stercoris as test system: C=CC(N)=O
Output line: 0.983

Input line: Fill in the recorded growth AUC for this compound, with Bacteroides stercoris as test system: COP(N)(=S)Oc1ccccc1C(=O)OC(C)C (centres undefined)
Output line: 0.979

Input line: Fill in the recorded growth AUC for this compound, with Bacteroides stercoris as test system: CNC(=O)O/N=C/C(C)(C)S(C)=O (centres undefined)
Output line: 1.02

---

Tested on: Streptococcus salivarius
Experiment: growth AUC relative to DMSO control (median of replicates) (fraction); higher = more growth (less inhibition), active = hit call of the paper
Details: 20 µM; 24 h
This listing pairs molecules with measured growth AUC.
# output: bare number, no unit

[
  {
    "Record smiles": "O=c1c2cc(F)ccc2nc(-n2cncn2)n1-c1ccc(Cl)cc1Cl",
    "growth AUC": 1.02
  },
  {
    "Record smiles": "CS(=O)(=O)c1ccc(C(=O)C2C(=O)CCCC2=O)c(Cl)c1",
    "growth AUC": 0.994
  }
]

Input line: Would you mind telling me what growth AUC value was observed for CC(C)OC(=O)Nc1ccccc1 ?
Output line: 1.01

---

Tested on: Eubacterium rectale
Test: growth AUC relative to DMSO control (median of replicates) (fraction); higher = more growth (less inhibition), active = hit call of the paper
Conditions: 20 µM; 24 h
# cutoff 1 applies to growth AUC; >= gives T, < gives F

# example entries with known answers
[
  {
    "Compound": "CC(C)(C)c1ccc(CSc2cnn(C(C)(C)C)c(=O)c2Cl)cc1",
    "Class": "F"
  },
  {
    "Compound": "N#Cc1nn(-c2c(Cl)cc(C(F)(F)F)cc2Cl)c(N)c1S(=O)C(F)(F)F (stereo unspecified)",
    "Class": "F"
  },
  {
    "Compound": "N#Cc1sc2c(=O)c3ccccc3c(=O)c=2sc1C#N",
    "Class": "F"
  },
  {
    "Compound": "O.[Br-].[Br-].c1cc[n+]2c(c1)-c1cccc[n+]1CC2",
    "Class": "T"
  },
  {
    "Compound": "COP(=S)(OC)Oc1ccc([N+](=O)[O-])c(C)c1",
    "Class": "T"
  },
  {
    "Compound": "O=C(O)CCCOc1ccc(Cl)cc1Cl",
    "Class": "T"
  },
  {
    "Compound": "CN(C)C(CSS(=O)(=O)[O-])CSS(=O)(=O)O.[Na+]",
    "Class": "T"
  },
  {
    "Compound": "O=C(Nc1ccccc1)c1ccccc1I",
    "Class": "F"
  },
  {
    "Compound": "CC(C)(C)C(=O)C(Oc1ccc(Cl)cc1)n1cncn1 (stereo unspecified)",
    "Class": "T"
  },
  {
    "Compound": "C[N+](C)(C)CCCl.[Cl-]",
    "Class": "T"
  }
]

Input line: Quick check: does COc1cccc(C(=O)NN(C(=O)c2cc(C)cc(C)c2)C(C)(C)C)c1C have growth AUC greater than or equal to 1?
Output line: T

Input line: Quick check: does CNC(=O)O/N=C/C(C)(C)S(C)=O (stereo unspecified) have growth AUC greater than or equal to 1?
Output line: T

Input line: Quick check: does ClC1C(Cl)C(Cl)C(Cl)C(Cl)C1Cl (mixture of isomers) have growth AUC greater than or equal to 1?
Output line: F

Input line: Quick check: does COC(=O)COc1ccc(Cl)cc1Cl have growth AUC greater than or equal to 1?
Output line: T

Input line: Quick check: does COCc1cnc(C2=NC(C)(C(C)C)C(=O)N2)c(C(=O)O)c1 (stereo unspecified) have growth AUC greater than or equal to 1?
Output line: T

Input line: Quick check: does N#CCNC(=O)c1cnccc1C(F)(F)F have growth AUC greater than or equal to 1?
Output line: F

Input line: Quick check: does CCOC(=O)COc1cc(-c2nn(C)c(OC(F)F)c2Cl)c(F)cc1Cl have growth AUC greater than or equal to 1?
Output line: T

Input line: Quick check: does O=C1C2CC=CCC2C(=O)N1SC(Cl)(Cl)Cl (stereo unspecified) have growth AUC greater than or equal to 1?
Output line: T

Input line: Quick check: does COP(=O)(OC)Oc1ccc(SC)c(C)c1 have growth AUC greater than or equal to 1?
Output line: F

Input line: Quick check: does C#CCOc1ccc(CCNC(=O)C(OCC#C)c2ccc(Cl)cc2)cc1OC (stereo unspecified) have growth AUC greater than or equal to 1?
Output line: T

Input line: Quick check: does CCOc1ccc(C(C)(C)COCc2cccc(Oc3ccccc3)c2)cc1 have growth AUC greater than or equal to 1?
Output line: T

Input line: Quick check: does OC(Cc1ccccc1Cl)(Cn1[nH]cnc1=S)C1(Cl)CC1 (stereo unspecified) have growth AUC greater than or equal to 1?
Output line: F

Input line: Quick check: does COP1(=S)OCc2ccccc2O1 (stereo unspecified) have growth AUC greater than or equal to 1?
Output line: T
